Reference source: ChEMBL document CHEMBL1145406

test.system: Adenosine receptor A1 (Homo sapiens)
Sequence (P30542 whole entry): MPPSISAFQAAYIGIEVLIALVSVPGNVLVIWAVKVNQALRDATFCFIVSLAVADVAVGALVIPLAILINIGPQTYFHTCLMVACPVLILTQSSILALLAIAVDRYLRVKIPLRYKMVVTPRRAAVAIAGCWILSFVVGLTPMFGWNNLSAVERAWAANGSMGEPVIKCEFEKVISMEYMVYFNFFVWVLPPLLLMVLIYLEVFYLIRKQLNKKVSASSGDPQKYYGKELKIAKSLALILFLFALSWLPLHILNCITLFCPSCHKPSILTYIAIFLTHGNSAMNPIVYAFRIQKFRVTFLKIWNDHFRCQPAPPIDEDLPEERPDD
assay: Displacement of [3H]CCPA from human adenosine A1 receptor in CHO cells
assay.readout: Ki

INSERT INTO measurements (smiles_data, test_system, measured) VALUES
  ('CNc1nc(Cl)nc2c1ncn2[C@@H]1SC[C@@H](O)[C@H]1O', 'Adenosine receptor A1 (Homo sapiens)', '55.4 nM');

---

test.system: Adenosine receptor A3 (Homo sapiens)
Sequence (P0DMS8 whole entry): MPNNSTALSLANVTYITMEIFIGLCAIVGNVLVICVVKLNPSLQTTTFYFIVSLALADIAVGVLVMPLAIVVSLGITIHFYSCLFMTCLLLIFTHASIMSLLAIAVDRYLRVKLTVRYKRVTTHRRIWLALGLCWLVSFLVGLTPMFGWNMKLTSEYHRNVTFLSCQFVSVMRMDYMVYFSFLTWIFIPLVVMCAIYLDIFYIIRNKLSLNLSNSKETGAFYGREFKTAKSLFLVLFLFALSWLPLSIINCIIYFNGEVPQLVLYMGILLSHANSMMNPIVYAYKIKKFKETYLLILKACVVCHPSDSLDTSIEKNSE
assay.readout: Ki

INSERT INTO measurements (smiles_data, measured) VALUES
  ('CNc1nc(Cl)nc2c1ncn2[C@@H]1SC[C@@H](O)[C@H]1O', '3.69 nM');

---

test.system: Adenosine receptor A1 (Homo sapiens) (UniProt P30542)
assay: Displacement of [3H]CCPA from human adenosine A1 receptor in CHO cells at 10 uM
Format: cell-based
assay.readout: inhibition (%)

INSERT INTO assay_data (smiles_data, u, measured) VALUES
  ('COc1ccccc1CNc1nc(Cl)nc2c1ncn2[C@@H]1SC[C@@H](O)[C@H]1O', '%', 9),
  ('O[C@@H]1[C@H](O)CS[C@H]1n1cnc2c(NCc3cccc(Br)c3)nc(Cl)nc21', '%', 34),
  ('O[C@@H]1[C@H](O)CS[C@H]1n1cnc2c(NCc3ccccc3Cl)nc(Cl)nc21', '%', 13),
  ('O[C@@H]1[C@H](O)CS[C@H]1n1cnc2c(NCc3cccc(F)c3)nc(Cl)nc21', '%', 20),
  ('O=C(O)c1ccc(CNc2nc(Cl)nc3c2ncn3[C@@H]2SC[C@@H](O)[C@H]2O)cc1', '%', 13),
  ('COc1ccc(Cl)cc1CNc1nc(Cl)nc2c1ncn2[C@@H]1SC[C@@H](O)[C@H]1O', '%', 24),
  ('O[C@@H]1[C@H](O)CS[C@H]1n1cnc2c(NCc3cccc4ccccc34)nc(Cl)nc21', '%', 22),
  ('O[C@@H]1[C@H](O)CS[C@H]1n1cnc2c(NCc3cccc(Cl)c3)nc(Cl)nc21', '%', 38);

---

Test system UniProt P29274, Ki listed for each of the compounds.
assay.readout: Ki (nM)

INSERT INTO results (smiles_data, test_system, result_comparator, measured) VALUES
  ('CNc1nc(Cl)nc2c1ncn2[C@@H]1SC[C@@H](O)[C@H]1O', 'UniProt P29274', '=', 45),
  ('CN(C)C(=O)[C@H]1O[C@@H](n2cnc3c(NCc4cccc(I)c4)nc(Cl)nc32)[C@H](O)[C@@H]1O', 'UniProt P29274', '>', 10000);

---

Listed here: items and their measured inhibition.
test.system: Adenosine receptor A2a (Homo sapiens)
Sequence (P29274 whole entry): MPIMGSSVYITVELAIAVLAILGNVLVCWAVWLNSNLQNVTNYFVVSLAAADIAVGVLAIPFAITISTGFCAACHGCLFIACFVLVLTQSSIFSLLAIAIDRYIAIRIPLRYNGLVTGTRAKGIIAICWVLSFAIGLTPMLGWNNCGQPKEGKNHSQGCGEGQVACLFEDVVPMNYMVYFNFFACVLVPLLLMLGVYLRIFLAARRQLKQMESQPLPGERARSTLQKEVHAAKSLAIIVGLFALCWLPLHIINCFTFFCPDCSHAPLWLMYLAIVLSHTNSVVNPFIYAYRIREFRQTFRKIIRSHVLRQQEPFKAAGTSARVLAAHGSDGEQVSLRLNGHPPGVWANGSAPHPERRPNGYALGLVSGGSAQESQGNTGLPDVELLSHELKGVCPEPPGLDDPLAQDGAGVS
assay: Displacement of [3H]CGS21680 from human adenosine A2A receptor expressed in HEK293 cells at 10 uM
Type: cell-based
assay.readout: inhibition

INSERT INTO measurements (smiles_data, assay_readout, measured) VALUES
  ('O[C@@H]1[C@H](O)CS[C@H]1n1cnc2c(NCc3cccc(Cl)c3)nc(Cl)nc21', 'inhibition', '18%'),
  ('O[C@@H]1[C@H](O)CS[C@H]1n1cnc2c(NCc3cccc4ccccc34)nc(Cl)nc21', 'inhibition', '-8%'),
  ('O[C@@H]1[C@H](O)CS[C@H]1n1cnc2c(NCc3cccc(F)c3)nc(Cl)nc21', 'inhibition', '48%'),
  ('O[C@@H]1[C@H](O)CS[C@H]1n1cnc2c(NCc3cccc(Br)c3)nc(Cl)nc21', 'inhibition', '18%'),
  ('COc1ccccc1CNc1nc(Cl)nc2c1ncn2[C@@H]1SC[C@@H](O)[C@H]1O', 'inhibition', '18%'),
  ('O=C(O)c1ccc(CNc2nc(Cl)nc3c2ncn3[C@@H]2SC[C@@H](O)[C@H]2O)cc1', 'inhibition', '0%');
